// data source = paper PMC2526197

Molecular target: T1, Evasin-1 (Rhipicephalus sanguineus, UniProt P0C8E7 21-114)
T1 sequence (looked up): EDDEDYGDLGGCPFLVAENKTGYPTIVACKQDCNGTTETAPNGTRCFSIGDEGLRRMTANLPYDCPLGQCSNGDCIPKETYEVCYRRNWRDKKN
Experiment: SPR
Listed here: items and their measured koff.
Field: numeric (s⁻¹). Do not append units.

1) CCL4 (ligand, human, UniProt P13236 24-92, looked up) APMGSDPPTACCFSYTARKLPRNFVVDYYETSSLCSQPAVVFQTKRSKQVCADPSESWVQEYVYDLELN :: 0.0022
2) CCL3L1 (ligand, human, UniProt P16619 24-93, looked up) APLAADTPTACCFSYTSRQIPQNFIADYFETSSQCSKPSVIFLTKRGRQVCADPSEEWVQKYVSDLELSA :: 0.00067
3) CCL3 (ligand, human, UniProt P10147 24-92, looked up) SLAADTPTACCFSYTSRQIPQNFIADYFETSSQCSKPGVIFLTKRSRQVCADPSEEWVQKYVSDLELSA :: 0.00243
4) murine MIP-1β (ligand, mouse, UniProt P14097 24-92, looked up) APMGSDPPTSCCFSYTSRQLHRSFVMDYYETSSLCSKPAVVFLTKRGRQICANPSEPWVTEYMSDLELN :: 0.00058

Please find the next binder below.
**Q:** Give the measured koff for murine MIP-1α (ligand, mouse, UniProt P10855 24-92, looked up) APYGADTPTACCFSYSRKIPRQFIVDYFETSSLCSQPGVIFLTKRNRQICADSKETWVQEYITDLELNA
**A:** 0.00118
